I'd appreciate it if you could supply Diffusion coefficient values for the items below.
PROTOCOL_DETAILS: Self-diffusion NMR (SD-NMR) diffusion coefficients of the components of the AX-loaded medium
Format: physicochemical
APPLIED_CONDITIONS: 0.5 wt % AX-loaded medium, water content 0 wt %

Report Diffusion coefficient for every entry below.
1. C=C(C)[C@H]1CC=C(C)CC1 [R-(+)-limonene, R-(+)-Limonene]
2. CC1=C(/C=C/C(C)=C/C=C/C(C)=C/C=C/C=C(C)/C=C/C=C(C)/C=C/C2=C(C)C(=O)[C@@H](O)CC2(C)C)C(C)(C)C[C@H](O)C1=O
3. CC(O)CO (stereo not shown)

Outgoing:
1: 5.46 × 10^−11 m^2/sec; 2: 4.7 × 10^−12 m^2/sec; 3: 4.43 × 10^−11 m^2/sec

Incoming: Fill blank: measured Diffusion coefficient of the compound "CCO" is ____.
Outgoing: 4.13 × 10^−11 m^2/sec
